Each item that follows carries a reported IC50.
system.name: EIF2AK3 (PERK) catalytic domain (amino acids 536-1116) (Homo sapiens)
Construct: EIF2AK3 (PERK) catalytic domain (amino acids 536-1116)
Sequence (Q9NZJ5 536-1116): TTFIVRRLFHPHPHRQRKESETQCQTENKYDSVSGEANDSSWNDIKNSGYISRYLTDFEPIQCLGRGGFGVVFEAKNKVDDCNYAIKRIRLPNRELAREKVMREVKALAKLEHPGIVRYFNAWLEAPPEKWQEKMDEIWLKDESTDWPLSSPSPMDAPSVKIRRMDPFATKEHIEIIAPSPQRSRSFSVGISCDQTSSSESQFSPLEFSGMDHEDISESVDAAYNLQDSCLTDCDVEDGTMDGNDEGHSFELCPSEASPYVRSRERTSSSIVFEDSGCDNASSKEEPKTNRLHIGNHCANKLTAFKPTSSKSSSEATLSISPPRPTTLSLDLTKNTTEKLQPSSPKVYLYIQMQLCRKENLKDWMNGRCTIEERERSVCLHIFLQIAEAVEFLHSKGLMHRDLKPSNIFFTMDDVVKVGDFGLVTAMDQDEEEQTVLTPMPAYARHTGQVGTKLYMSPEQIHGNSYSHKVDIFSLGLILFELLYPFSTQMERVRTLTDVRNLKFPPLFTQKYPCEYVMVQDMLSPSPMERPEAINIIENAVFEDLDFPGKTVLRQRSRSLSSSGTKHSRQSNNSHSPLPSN
protocol.description: PERK in vitro activity assay (isolated), TR-FRET kinase assay
Assay type: biochemical
conditions.used: isolated PERK enzyme, 1.5 μM ATP; read-out: Biochemical IC50

Cc1nc(N)c2c(-c3ccc(NC(=O)C(O)c4cccc(Cl)c4)c(F)c3F)cn(C)c2n1 (stereo not shown) [Example 112]: 0.101 to 0.25 µM
Cc1nc(N)c2c(-c3ccc(NC(=O)C(O)c4cccc(C(F)(F)F)c4)cc3C)cn(C)c2n1 (stereo not shown) [Example 51]: 0.101 to 0.25 µM
Cc1cccc(C(O)C(=O)Nc2ccc(-c3cn(C)c4nc(C)nc(N)c34)c(F)c2)c1 (stereo not shown) [Example 74]: 0.001 to 0.025 µM
Cc1nc(N)c2c(-c3ccc(NC(=O)C(O)c4cccc5cnn(C)c45)cc3C)cn(C)c2n1 (single isomer, unassigned) [Example 65]: 0.251 to 0.5 µM
Cc1nc(N)c2c(-c3ccc(NC(=O)C(O)c4cccc(C(F)(F)F)c4)cc3C)cn(C)c2n1 (stereo not shown) [Example 49]: 0.001 to 0.025 µM
Cc1cc(NC(=O)[C@H](N)c2ccccc2)ccc1-c1cn(C)c2ncnc(N)c12: 0.026 to 0.05 µM

INPUT: Fetch value of IC50 on EIF2AK3 (PERK) catalytic domain (amino acids 536-1116) (Homo sapiens) for CCc1cccc(C(O)C(=O)Nc2ccc(-c3cn(C)c4nc(C)nc(N)c34)c(C)c2)c1 (stereo not shown) [Example 43] .
OUTPUT: 0.001 to 0.025 µM

INPUT: Fetch value of IC50 on EIF2AK3 (PERK) catalytic domain (amino acids 536-1116) (Homo sapiens) for Cc1nc(N)c2c(-c3ccc(NC(=O)C(O)c4cc(F)cc(C(F)(F)F)c4)cc3F)cn(C)c2n1 (stereo not shown) [Example 88] .
OUTPUT: 0.026 to 0.05 µM

INPUT: Fetch value of IC50 on EIF2AK3 (PERK) catalytic domain (amino acids 536-1116) (Homo sapiens) for CCc1cc(F)cc(C(O)C(=O)Nc2ccc(-c3cn(C)c4nc(C)nc(N)c34)c(C)c2)c1 (stereo not shown) [Example 59] .
OUTPUT: 0.051 to 0.1 µM

INPUT: Fetch value of IC50 on EIF2AK3 (PERK) catalytic domain (amino acids 536-1116) (Homo sapiens) for Cc1cc(NC(=O)C(O)c2ccccc2F)ccc1-c1cn(C)c2ncnc(N)c12 (stereo not shown) .
OUTPUT: 0.001 to 0.025 µM

INPUT: Fetch value of IC50 on EIF2AK3 (PERK) catalytic domain (amino acids 536-1116) (Homo sapiens) for `Cc1cc(NC(=O)c2ccccc2)ccc1-c1cn(C)c2ncnc(N)c12` .
OUTPUT: 0.101 to 0.25 µM

INPUT: Fetch value of IC50 on EIF2AK3 (PERK) catalytic domain (amino acids 536-1116) (Homo sapiens) for Cc1nc(N)c2c(-c3ccc(NC(=O)C(O)c4cccc(F)c4)cc3F)cn(C)c2n1 (stereo not shown) [Example 80] .
OUTPUT: 0.001 to 0.025 µM
